Data origin, for the record: paper PMC10786891

So I've got a bunch of binders here, and I need their Kd values.
# test_target: T1, EsCas13d, nuclease-dead (Eubacterium siraeum, UniProt B0MS50, R295A;H300A;R849A;H854A)
# T1 sequence: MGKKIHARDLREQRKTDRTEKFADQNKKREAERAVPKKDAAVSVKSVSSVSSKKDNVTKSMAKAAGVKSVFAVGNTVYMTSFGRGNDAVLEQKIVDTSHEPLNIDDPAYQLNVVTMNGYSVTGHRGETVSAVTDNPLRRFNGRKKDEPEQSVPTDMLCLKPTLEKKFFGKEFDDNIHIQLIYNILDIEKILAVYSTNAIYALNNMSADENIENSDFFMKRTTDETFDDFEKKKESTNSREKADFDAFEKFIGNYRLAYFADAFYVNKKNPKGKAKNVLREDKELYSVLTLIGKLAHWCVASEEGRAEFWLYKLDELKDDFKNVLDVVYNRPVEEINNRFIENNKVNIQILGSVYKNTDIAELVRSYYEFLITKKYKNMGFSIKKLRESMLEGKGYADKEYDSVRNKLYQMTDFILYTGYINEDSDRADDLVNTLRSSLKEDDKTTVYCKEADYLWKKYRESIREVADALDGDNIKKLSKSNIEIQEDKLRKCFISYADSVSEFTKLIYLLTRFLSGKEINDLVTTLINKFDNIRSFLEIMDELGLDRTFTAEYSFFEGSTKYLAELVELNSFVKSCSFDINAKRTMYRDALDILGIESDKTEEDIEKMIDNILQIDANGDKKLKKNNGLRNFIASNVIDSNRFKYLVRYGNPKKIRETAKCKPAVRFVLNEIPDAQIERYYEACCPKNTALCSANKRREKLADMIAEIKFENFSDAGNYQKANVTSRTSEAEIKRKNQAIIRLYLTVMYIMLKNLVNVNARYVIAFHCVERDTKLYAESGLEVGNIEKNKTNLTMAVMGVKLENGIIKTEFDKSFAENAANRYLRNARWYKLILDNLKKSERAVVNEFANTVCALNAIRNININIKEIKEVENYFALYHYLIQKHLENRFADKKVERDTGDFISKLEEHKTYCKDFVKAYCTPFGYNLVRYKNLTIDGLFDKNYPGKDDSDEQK
# assay_comment: crRNA (strand 1, pre-loaded); Mg2+; 40 mM Tris-HCl pH 7.5, 150 mM NaCl, 6 mM MgCl2, 1 mM DTT, 0.1% Tween-20, 0.2 mg/ml BSA; 25 C; 10 min per concentration, then washed
# applied_conditions: tags: His6-TwinStrep-SUMO cleaved; N-terminal SNAP kept (SNAP-Surface 488); label: 3' end held by stalled T7 RNA polymerase
Give the number; nM is assumed, so skip it.

Quick one: Kd for target 1 MT 5'PFS AAA 3'PFS CAC (mixed) RNA 1: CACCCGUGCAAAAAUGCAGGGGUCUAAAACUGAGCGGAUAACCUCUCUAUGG RNA 2: GGGAAUGGAUCCACAUCUACGAAUUCAAACCAUAGAGAGGUUAUCCGCUCACACAGAUCGGAAGAGCACACGU ?
29.5

Return reported Kd; argument: target 1 insU 3' of 15,insA 3' of 7 (mixed) RNA 1: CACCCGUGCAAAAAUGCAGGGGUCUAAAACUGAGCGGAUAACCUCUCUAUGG RNA 2: GGGAAUGGAUCCACAUCUACGAAUUCGUACCAUAGAGUAGGUUAUCACGCUCACCGAGAUCGGAAGAGCACACGU
8.2

# input binder: target 1 U11A,G12U (mixed) RNA 1: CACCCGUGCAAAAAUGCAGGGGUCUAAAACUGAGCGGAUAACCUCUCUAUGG RNA 2: GGGAAUGGAUCCACAUCUACGAAUUCGUACCAUAGAGAGUAUAUCCGCUCACCGAGAUCGGAAGAGCACACGU ; wanted: its Kd
5.1

# input binder: target 1 MT 5'PFS GUA 3'PFS UUC (mixed) RNA 1: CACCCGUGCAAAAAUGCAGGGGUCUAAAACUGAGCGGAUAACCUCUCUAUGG RNA 2: GGGAAUGGAUCCACAUCUACGAAUUCGUACCAUAGAGAGGUUAUCCGCUCAUUCAGAUCGGAAGAGCACACGU ; wanted: its Kd
9.25
